Reference for the values: patent US20090005363A1

target: mGluR5 (Homo sapiens, UniProt P41594); test: inhibition of the glutamate induced elevation of intracellular Ca2+ concentration; conditions: read-out: mGluR5 Activity inh. at 10 μM [%]
Sequence (P41594 21-1180 isoform P41594-2 limits assumed): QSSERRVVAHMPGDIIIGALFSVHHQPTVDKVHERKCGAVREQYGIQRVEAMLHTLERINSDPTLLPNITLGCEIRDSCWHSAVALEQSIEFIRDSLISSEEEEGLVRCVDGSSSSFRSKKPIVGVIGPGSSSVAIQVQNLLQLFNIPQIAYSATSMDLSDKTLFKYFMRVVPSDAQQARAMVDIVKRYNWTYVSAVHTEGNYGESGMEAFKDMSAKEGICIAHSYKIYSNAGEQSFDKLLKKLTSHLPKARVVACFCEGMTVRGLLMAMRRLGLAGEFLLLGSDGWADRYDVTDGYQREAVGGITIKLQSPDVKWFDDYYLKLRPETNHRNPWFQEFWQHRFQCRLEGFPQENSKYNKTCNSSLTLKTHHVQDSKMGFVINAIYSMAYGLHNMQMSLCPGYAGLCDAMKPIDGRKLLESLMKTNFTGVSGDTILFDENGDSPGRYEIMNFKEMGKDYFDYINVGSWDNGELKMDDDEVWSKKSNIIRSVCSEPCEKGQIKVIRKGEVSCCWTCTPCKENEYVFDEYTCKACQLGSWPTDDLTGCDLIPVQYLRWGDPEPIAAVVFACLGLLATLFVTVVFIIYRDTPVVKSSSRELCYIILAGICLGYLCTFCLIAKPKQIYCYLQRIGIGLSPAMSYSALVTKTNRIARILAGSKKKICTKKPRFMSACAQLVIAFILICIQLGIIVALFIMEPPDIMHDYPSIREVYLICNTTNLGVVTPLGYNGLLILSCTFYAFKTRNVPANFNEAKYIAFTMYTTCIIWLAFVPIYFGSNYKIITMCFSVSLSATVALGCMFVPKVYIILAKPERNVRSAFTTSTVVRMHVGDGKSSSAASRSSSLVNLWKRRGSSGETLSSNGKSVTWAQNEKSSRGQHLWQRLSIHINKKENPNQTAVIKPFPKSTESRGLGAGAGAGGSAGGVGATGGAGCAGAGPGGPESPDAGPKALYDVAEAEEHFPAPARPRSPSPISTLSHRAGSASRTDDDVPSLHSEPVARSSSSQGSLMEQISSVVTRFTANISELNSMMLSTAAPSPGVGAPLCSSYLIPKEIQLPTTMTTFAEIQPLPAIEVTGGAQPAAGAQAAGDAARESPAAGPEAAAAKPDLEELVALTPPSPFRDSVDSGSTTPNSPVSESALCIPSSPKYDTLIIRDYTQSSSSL
Counter-ions that a name gives are not always drawn.
attribute-measured: inhibition at 10 µM (%)
# unit: % | format: bare number

# count of solved cases: 5
>>> number("CCOc1cc(C(=O)N2CCCCCC2)cnc1Nc1ccc(Cl)cc1")
33
>>> number("Cc1ccc(Oc2ncc(C(=O)N3CCCC(C)C3)cc2Cl)cn1 (racemic)")
94
>>> number("COC1CCCN(C(=O)c2ccc(Nc3ccc(Cl)cc3)nc2)C1 (racemic)")
87
>>> number("Cc1ccc(Oc2ncc(C(=O)N3CCCCCC3)cc2Cl)cn1")
90
>>> number("CC1CC(C)CN(C(=O)c2ccc(Nc3ccc(Cl)cc3)nc2)C1 (stereo not drawn)")
88

Incoming: API: value(readout= inhibition at 10 µM, system= mGluR5 (Homo sapiens, UniProt P41594), query= "CC[C@@H]1CCCCN1C(=O)c1cnc(Nc2ccc(Cl)cc2)c(Cl)c1" )
Outgoing: 97

Incoming: What do you have for Cc1ccc(Nc2ccc(C(=O)N3C[C@@H](C)O[C@@H](C)C3)cn2)cc1 [Compound 1.20, hydrochloride] ?
Outgoing: 95

Incoming: What do you have for Cc1ncc(Nc2ncc(C(=O)N3CCCC(C)C3)cc2Cl)cn1 (stereo not drawn) ?
Outgoing: 97

Incoming: What do you have for "CC1(C)CCCN(C(=O)c2ccc(Nc3ccc(Cl)cc3)nn2)C1" ?
Outgoing: 82

Incoming: What do you have for C[C@@H]1CN(C(=O)c2ccc(Nc3ccc(Cl)cc3)nc2)C[C@H](C)O1 [Compound 1.19, hydrochloride] ?
Outgoing: 94

Incoming: What do you have for "Cc1ccc(Nc2ncc(C(=O)N3CCCCC3)cc2F)cn1" ?
Outgoing: 99

Incoming: What do you have for "Cc1ccc(Nc2ccc(C(=O)N3CCCCCCC3)cn2)cn1" ?
Outgoing: 81
